Measured pIC50 values are reported for all entries that follow.
testTarget: Chk1 (Homo sapiens)
Construct: purchased Upstate Biotechnology
Sequence (O14757 whole entry): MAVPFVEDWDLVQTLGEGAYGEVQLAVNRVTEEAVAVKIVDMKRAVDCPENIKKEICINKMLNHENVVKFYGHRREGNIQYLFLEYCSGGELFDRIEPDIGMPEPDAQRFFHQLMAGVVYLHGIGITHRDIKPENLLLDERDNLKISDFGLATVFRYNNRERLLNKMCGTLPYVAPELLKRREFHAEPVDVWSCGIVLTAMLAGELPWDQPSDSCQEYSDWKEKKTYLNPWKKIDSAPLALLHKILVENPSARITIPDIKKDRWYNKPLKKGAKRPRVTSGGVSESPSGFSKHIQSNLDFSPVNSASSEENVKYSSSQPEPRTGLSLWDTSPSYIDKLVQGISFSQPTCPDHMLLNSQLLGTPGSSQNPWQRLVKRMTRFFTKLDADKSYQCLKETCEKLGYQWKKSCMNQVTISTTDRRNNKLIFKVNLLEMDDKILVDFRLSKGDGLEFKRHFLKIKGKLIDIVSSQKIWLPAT
assaySummary: Chk1 kinase assay: incorporation of γ-33P ATP into immobilized myelin basic protein
Type: biochemical
conditions: Table 11; Chk1 only; read-out: Chk1 IC50
pIC50: −log10 of the molar value.

Example cases with answers are listed next.
compound | resultValue
CNC(=O)c1nc(-c2cccc(CN[C@@H]3c4ccccc4C[C@@H]3OC)c2)cnc1N | 6.00 to 7.30
CNC(=O)c1nc(-c2cccc(CNC3CCc4cc(-c5ccccc5)ccc43)c2)cnc1N (stereo not shown) | 6.00 to 7.30
CNC(=O)c1cc(-c2cccc(CNC3CCc4c(Cl)cccc43)c2)cnc1N (stereo not shown) | 6.00 to 7.30

Field pIC50 (entry CNC(=O)c1nc(-c2cccc(CNCc3ccc(-c4ccccc4)cc3F)c2)cnc1N ) reads 6.00 to 7.30

Field pIC50 (entry Nc1ncc(-c2cccc(C(=O)NCc3ccccc3)c2)nc1C(=O)N1CCN(c2ccc(F)cc2)CC1 ) reads ≤ 5.00

Field pIC50 (entry N#Cc1ccc(N/N=C/c2nc(-c3cccc(C(=O)NCc4ccccc4)c3)cnc2N)cc1 ) reads ≤ 5.00

Field pIC50 (entry CNC(=O)c1nc(-c2cccc(CNC3CCc4c(F)ccc(Br)c43)c2)cnc1N (stereo not shown) ) reads 6.00 to 7.30

Field pIC50 (entry C/C(=N\Nc1ccc(C(C)C)cc1)c1nc(-c2cccc(C(=O)NCc3ccccc3)c2)cnc1N ) reads 5.00 to 6.00

Field pIC50 (entry C/C(=N\Nc1ccccc1)c1nc(-c2cccc(C(=O)NCc3ccccc3)c2)cnc1N ) reads 5.00 to 6.00

Field pIC50 (entry CNC(=O)c1nc(-c2cccc(CNC3c4ccccc4-c4ccccc43)c2)cnc1N ) reads 5.00 to 6.00
